These data points were gathered from PubChem BioAssay.

- measurement-target: NADPH oxidase 4 (Homo sapiens) (UniProt Q9NPH5)
- Sequence (Q9NPH5 whole entry, looked up): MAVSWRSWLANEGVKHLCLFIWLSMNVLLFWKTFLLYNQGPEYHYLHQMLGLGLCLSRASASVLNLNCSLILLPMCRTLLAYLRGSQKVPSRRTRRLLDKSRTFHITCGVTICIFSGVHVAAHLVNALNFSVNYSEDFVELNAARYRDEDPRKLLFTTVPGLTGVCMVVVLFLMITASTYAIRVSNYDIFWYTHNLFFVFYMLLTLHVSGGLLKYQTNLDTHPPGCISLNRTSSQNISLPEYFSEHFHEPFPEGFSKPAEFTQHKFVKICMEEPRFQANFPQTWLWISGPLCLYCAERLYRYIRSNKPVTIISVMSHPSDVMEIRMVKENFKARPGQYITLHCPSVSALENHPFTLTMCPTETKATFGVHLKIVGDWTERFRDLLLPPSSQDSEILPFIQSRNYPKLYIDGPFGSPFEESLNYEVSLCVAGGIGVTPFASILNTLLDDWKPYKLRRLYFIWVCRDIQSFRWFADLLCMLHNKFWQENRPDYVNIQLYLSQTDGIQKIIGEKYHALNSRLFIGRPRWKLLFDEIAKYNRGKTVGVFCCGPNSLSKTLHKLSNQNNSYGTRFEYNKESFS
- protocol-notes: NOX4-dependent H2O2 signal modulators, primary screen, NOX inhibitor project, cell-based, HEK293-NOX4, tetracycline-induced, Amplex Red fluorescence (AID 1160)
- condition-details: 45 min, higher = more signal, called active from +8 up or from −8 down
Activity calls are given as the source filed them.

# molecule, z-score
rows = [
    ("C=CCOC(=O)[C@@H]1[C@H]2C(=O)O[C@H](c3ccccc3)[C@H](c3ccccc3)N2[C@H](c2ccc(OCCOC(=O)[C@@H]3C[C@@H]4C(=O)N[C@@H](Cc5ccccc5)C(=O)N4[C@@H]3c3cccc(OCCO)c3)cc2)[C@@]12C(=O)Nc1ccc(I)cc12", "-1.02 (inactive)"),
    ("CC(C)C(O)C1C=CC2C(=O)N(c3ccccc3)C(=O)C2N1Nc1ccc(C#N)cc1 (centres undefined)", "-4.46 (inactive)"),
    ("COCCOC(=O)N1C(=O)[C@@]2(c3cc(C#CCNC(N)=O)ccc31)[C@H](C(=O)N1CCc3cc(OC)c(OC)cc3C1)[C@H]1C(=O)O[C@H](c3ccccc3)[C@H](c3ccccc3)N1[C@@H]2c1ccc(OCCO)cc1", "0.869 (inactive)"),
    ("COc1ccc(C(=O)Nc2cccc(CN3C(=O)[C@@]4(O[C@@H](CCn5cc(CCO)nn5)[C@H]([Si](C)(C)c5ccc(OC)cc5)[C@H]4C)c4ccccc43)c2)cc1", "-0.389 (inactive)"),
    ("COc1ccc(C#Cc2ccc3c(c2)[C@]2(C(=O)N3)[C@H](C(=O)NC[C@H](O)c3ccccc3)[C@H]3C(=O)O[C@H](c4ccccc4)[C@H](c4ccccc4)N3[C@@H]2c2ccc(OCCO)cc2)cc1", "-1.22 (inactive)"),
    ("O=C1c2ccccc2[C@@]2(Cc3ccccc3N(Cc3ccccc3)C2=O)[C@H](c2ccc(CO)cc2)N1C1CCCCC1", "-0.143 (inactive)"),
    ("O=C(CS)NCCCCCCNC(=O)[C@H]1C[C@H]2C(=O)N3CCC[C@H]3C(=O)N2[C@H]1c1cccc(OCCO)c1", "0.799 (inactive)"),
    ("COC(=O)[C@]1(Cc2ccccc2N=[N+]=[N-])N=C(c2ccc(OCCCO)cc2)O[C@@H]1c1ccccc1N=[N+]=[N-]", "0.755 (inactive)"),
    ("CCCCC=C[C@@H](NC(=O)c1ccco1)c1ccccc1", "0.76 (inactive)"),
    ("COc1ccc([Si](C)(C)[C@@H]2[C@@H](CCn3cc([C@H](O)c4ccccc4)nn3)O[C@]3(C(=O)N(Cc4cccc(N5CCOC5=O)c4)c4ccccc43)[C@H]2C)cc1", "2.29 (inactive)"),
    ("O=c1cccc(CCc2ccccc2)o1", "0.12 (inactive)"),
    ("CCOC(=O)C1=CC[C@@H](c2ccccc2Cl)N(S(=O)(=O)c2ccc(C)cc2)C1", "-0.832 (inactive)"),
    ("Cc1ccc([C@H]2C(C(=O)O)=C[C@@H](C)N2S(=O)(=O)c2ccc(C)cc2)cc1", "0.259 (inactive)"),
    ("O=C(O)[C@H]1C[C@H]2C(=O)NCC(=O)N2[C@H]1c1ccc(O)cc1", "-1.12 (inactive)"),
]

====

- protocol-notes: binders from COS7 lysate, DM2A8 probe, primary screen, torsin A project, cell lysate, small-molecule microarray, fluorescence 635/667 (AID 1065)
- condition-details: higher = more signal, COS7 lysate expressing mutant human TOR1A
# composite z-score per record follows
measured-parameter: composite z-score

# compound, measured-parameter, value-reported
data = [
    ("COCCOC(=O)N1C(=O)[C@@]2(c3cc(C#CCC(C(=O)OC)C(=O)OC)ccc31)[C@H](C(=O)N1CCCCCCC1)[C@H]1C(=O)O[C@H](c3ccccc3)[C@H](c3ccccc3)N1[C@@H]2c1ccc(OCCO)cc1", "composite z-score", 1.81),
    ("CCCCCN1CC=CC23O[C@@H]4/C=C\\CCC(C)OC(=O)C4[C@H]2C(=O)N(CCCCCO)[C@@H]3C1=O (stereo partly specified)", "composite z-score", 0.698),
    ("C[C@]1(C(=O)NCc2ccccc2)c2ccccc2C(=O)N(Cc2ccc(OC(F)(F)F)cc2)[C@H]1c1ccc(CO)cc1", "composite z-score", 1.14),
    ("CO[C@H]1O[C@H](CO)[C@@H](OC(=O)Nc2ccc(Oc3ccccc3)cc2)[C@H](OC(=O)Nc2ccccc2)[C@H]1OC(=O)Nc1ccccc1", "composite z-score", 0.95),
    ("NC(=O)NCC#Cc1ccc2c(c1)[C@]1(C(=O)N2)[C@H](C(=O)NC[C@H](O)c2ccccc2)[C@H]2C(=O)O[C@H](c3ccccc3)[C@H](c3ccccc3)N2[C@@H]1c1ccc(O)cc1", "composite z-score", 0.362),
    ("C[C@H]1NC(=O)[C@H](Cc2ccccc2)NC(=O)[C@@]23C(=O)N[C@@H](Cc4ccccc4)C2[C@H](C)[C@@]2(C)O[C@H]2C3/C=C/C/C=C\\CNC1=O (stereo partly specified)", "composite z-score", 0.32),
]

====

- System: Plasmodium falciparum Sir2 (PF13_0152, Sir2A)
- protocol-notes: pfSir2 binders on small-molecule microarrays, primary screen, biochemical, small-molecule microarray, 635 nm fluorescence (AID 1098);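 further: score merges spot fluorescence intensity with its signal-to-noise ratio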
- condition-details: small-molecule microarray binding, fluorescence 635 nm; higher = more signal
measured-parameter: composite z-score

# molecule, value-reported
data = [
    ("CCOC(=O)[C@H]1C[C@H]2O[C@@]23C[C@H]1C(=O)N1CCCC1[C@@H]3O[Si](C)(C)C(C)(C)C (some centres not stated)", -0.169),
    ("COCCOC(=O)N1C(=O)[C@@]2(c3cc(C#CCNC(N)=O)ccc31)[C@H](C(=O)N1CCN(c3ncccn3)CC1)[C@H]1C(=O)O[C@H](c3ccccc3)[C@H](c3ccccc3)N1[C@@H]2c1ccccc1OCCO", 1.2),
    ("COC(=O)C[C@@H]1C[C@H](C)[C@]2(O1)C(=O)N(Cc1ccccc1)c1ccc(NC(C)=O)cc12", 0.0968),
    ("NCCCCCNC(=O)[C@H]1C[C@H]2C(=O)NCC(=O)N2[C@H]1c1cccc(OCCO)c1", 1.64),
    ("Cc1ccccc1C(O)C1C=CC2C(=O)N(C)C(=O)C2N1N1CCCCC1 (configuration not stated)", 1.29),
    ("[N-]=[N+]=NCc1ccccc1[C@H]1OC(c2ccc(OCCCO)cc2)=N[C@@]1(CCS(=O)(=O)c1ccccc1)C(=O)N1CCOCC1", 1.26),
    ("COC(=O)C(CC#Cc1ccc2c(c1)[C@]1(C(=O)N2)[C@H](c2ccc(OCCO)cc2)N2[C@H](c3ccccc3)[C@H](c3ccccc3)OC(=O)[C@H]2[C@@H]1C(=O)NC[C@H](O)c1ccccc1)C(=O)OC", 1.62),
]

====

- measurement-target: Follistatin-related protein 3 (Homo sapiens)
- protocol-notes: FSTL3 binders on small-molecule microarrays, primary screen, biochemical, small-molecule microarray, 635 nm fluorescence (AID 1105);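 further: score merges emission near 667 nm and signal to noise per printed spot across three slides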
- condition-details: FSTL3 binding, higher = more signal
# composite z-score per record follows

# compound, measurement-target, composite z-score
records = [
    ("COc1ccc(NN2C(C(O)c3ccc(OC)c(OCc4ccccc4)c3)C=CC3C(=O)N(C4CCCCC4)C(=O)C32)cc1 (centres undefined)", "Follistatin-related protein 3 (Homo sapiens)", 1),
    ("COC(=O)[C@@]1(Cc2ccccc2)N=C(c2ccc(OCCCO)cc2)O[C@H]1c1ccccc1N=[N+]=[N-]", "Follistatin-related protein 3 (Homo sapiens)", 0.848),
    ("C[C@]1(C(=O)NCc2ccccc2)c2ccccc2C(=O)N(Cc2cc(F)cc(C(F)(F)F)c2)[C@H]1c1ccc(CO)cc1", "Follistatin-related protein 3 (Homo sapiens)", -1.45),
    ("CCCCCN1CC=CC23O[C@@H]4/C=C\\CCCOC(=O)C4[C@H]2C(=O)N(CCCCCCO)[C@@H]3C1=O (some centres undefined)", "Follistatin-related protein 3 (Homo sapiens)", -0.0242),
]

====

- protocol-notes: E. coli acrAB mutant growth effects, primary screen, E. coli filamentation inducers, strain DRC39, OD650, 24 h (AID 1178);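 further: growth measured as culture turbidity by optical density at 650 nm; test concentration not given here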
- condition-details: higher = more signal, called active from +8 up or from −8 down
Activity calls are given as the source filed them.
# z-score per record follows

# compound, z-score
rows = [
    ("Cc1ccccc1C(O)C1C=CC2C(=O)N(C)C(=O)C2N1Nc1ccccc1 (centres undefined)", "-0.688 (inactive)"),
    ("C#CCN(C(/C=C/c1ccccc1)CO)C(C(=O)O)c1ccccc1 (centres undefined)", "1.6 (inactive)"),
    ("O=C(O)[C@H]1C[C@H]2C(=O)NCC(=O)N2[C@H]1c1ccc(O)cc1", "1.49 (inactive)"),
    ("Cc1ccc(S[C@]2(C(=O)NCC(C)C)CC(=O)N(Cc3ccccc3)[C@@H]2c2ccc(CO)cc2I)cc1", "-0.0655 (inactive)"),
    ("CS(=O)(=O)CCOC(=O)C1=CC(c2ccc(CO)cc2)=CC(C2CC2)N(Cc2cc3c(cc2Br)OCO3)C=C1C(=O)OCCS(C)(=O)=O (centres undefined)", "0.537 (inactive)"),
    ("O=C1OCCC=C[C@H]2OC34C=CCN(Cc5ccccc5)C(=O)[C@H]3N(CCCCCO)C(=O)[C@@H]4C12 (some centres undefined)", "1.24 (inactive)"),
    ("CCOc1cc(C(O)C2C=CC3C(=O)N(c4ccccc4)C(=O)C3N2Nc2ccc([N+](=O)[O-])cc2)ccc1O (centres undefined)", "-0.763 (inactive)"),
    ("CN1C(=O)C2C(C1=O)C1C=C(CCCO)C2C(c2cccs2)N1C (centres undefined)", "0.469 (inactive)"),
    ("COc1ccc(NN2C(C(O)c3ccc(OC)c(OCc4ccccc4)c3)C=CC3C(=O)N(C4CCCCC4)C(=O)C32)cc1 (centres undefined)", "-0.101 (inactive)"),
]
